Values compiled from ChEMBL document CHEMBL5512648.

Biological target: Solute carrier family 22 member 12 (Homo sapiens)
Sequence (Q96S37 whole entry): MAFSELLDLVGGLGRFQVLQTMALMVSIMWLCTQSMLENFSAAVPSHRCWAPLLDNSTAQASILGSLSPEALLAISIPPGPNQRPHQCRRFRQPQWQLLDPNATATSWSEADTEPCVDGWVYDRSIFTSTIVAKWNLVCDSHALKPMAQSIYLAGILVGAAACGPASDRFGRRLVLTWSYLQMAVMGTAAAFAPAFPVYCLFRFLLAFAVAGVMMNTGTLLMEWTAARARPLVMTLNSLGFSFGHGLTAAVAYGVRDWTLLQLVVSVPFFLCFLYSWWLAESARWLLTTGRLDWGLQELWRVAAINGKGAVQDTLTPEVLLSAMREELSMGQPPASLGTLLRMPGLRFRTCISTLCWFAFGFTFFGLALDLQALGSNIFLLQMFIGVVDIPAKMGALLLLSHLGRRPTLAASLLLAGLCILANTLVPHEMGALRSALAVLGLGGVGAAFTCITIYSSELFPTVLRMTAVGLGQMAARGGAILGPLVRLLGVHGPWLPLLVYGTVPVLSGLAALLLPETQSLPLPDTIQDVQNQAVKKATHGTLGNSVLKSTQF
Test: Inhibition of human URAT1 expressed in HEK-293T cells assessed as inhibition rate by measuring [C14}-uric acid uptake at 1 uM measured after 8 mins by MicroBeta2 scintillation counting analysis relative to control
Type: cell-based
Please go through the items and note down their inhibition at 1 µM.
Numbers only, in %.

For each of the items listed, what is its inhibition at 1 µM?
1. CN(c1ccc(Cl)cc1)c1ccc2nccc(C(=O)N3CCC[C@H]3CNS(=O)(=O)C(F)(F)F)c2c1
2. O=C(c1ccnc2ccc(OCc3ccc(Cl)cc3)cc12)N1CCC[C@H]1CNS(=O)(=O)C(F)(F)F
3. O=C(c1ccnc2ccc(OCC3CC3)cc12)N1CCC[C@H]1CNS(=O)(=O)C(F)(F)F
4. O=C(c1ccnc2ccc(N3CCCCC3)cc12)N1CCC[C@H]1CNS(=O)(=O)C(F)(F)F
5. O=C(c1ccnc2ccc(Nc3ccc(F)cc3)cc12)N1CCC[C@H]1CNS(=O)(=O)C(F)(F)F

result:
11
-3
35
55
39

----------
assay: Metabolic stability in human liver microsomes assessed as compound remaining in presence of NADPH measured after 30 mins; format: ADME, Microsome; details: read-out: Stability
quantity: remaining at 0.5 h (%)
One number for each entry, in %.

O=C(c1ccnc2ccc(-c3ccc(F)cc3)cc12)N1CCC[C@H]1CNS(=O)(=O)C(F)(F)F :: 2.3
O=C(c1ccnc2ccc(-c3ccnc(F)c3)cc12)N1CCC[C@H]1CNS(=O)(=O)C(F)(F)F :: 24.8
O=C(c1ccnc2ccc(-c3cnoc3)cc12)N1CCC[C@H]1CNS(=O)(=O)C(F)(F)F :: 85.8
O=C(c1ccnc2ccc(C3CC3)cc12)N1CCC[C@H]1CNS(=O)(=O)C(F)(F)F :: 63.3
O=C(c1ccnc2ccc(C3CCCCC3)cc12)N1CCC[C@H]1CNS(=O)(=O)C(F)(F)F :: 0

Could you report remaining at 0.5 h for every entry in the following list?
1. O=C(c1ccnc2ccc(C3CCCC3)cc12)N1CCC[C@H]1CNS(=O)(=O)C(F)(F)F
2. O=C(c1ccnc2ccc(Br)cc12)N1CCC[C@H]1CNS(=O)(=O)C(F)(F)F

result:
1. 0.2
2. 53.5

----------
test: MRT (0 to infinity) in ICR mouse plasma at 5 mg/kg, iv measured upto 24 hrs by LC-MS/MS analysis; type: ADME, organism-based
quantity: MRT inf (min)
Numbers only, in min.

query: Quick one: MRT inf of O=C(c1ccnc2ccc(Br)cc12)N1CCC[C@H]1CNS(=O)(=O)C(F)(F)F ?
result: 49.2

----------
biological target: OAT1 (SLC22A6) (Homo sapiens, UniProt Q4U2R8); assay: Inhibition of human OAT1 expressed in MDCK-II cells using 6-carboxyfluorescein as substrate at 5 uM relative to control; assay type: cell-based; settings: MDCK-II cells expressing human OAT1, probe 6-carboxyfluorescein
Sequence (Q4U2R8 whole entry): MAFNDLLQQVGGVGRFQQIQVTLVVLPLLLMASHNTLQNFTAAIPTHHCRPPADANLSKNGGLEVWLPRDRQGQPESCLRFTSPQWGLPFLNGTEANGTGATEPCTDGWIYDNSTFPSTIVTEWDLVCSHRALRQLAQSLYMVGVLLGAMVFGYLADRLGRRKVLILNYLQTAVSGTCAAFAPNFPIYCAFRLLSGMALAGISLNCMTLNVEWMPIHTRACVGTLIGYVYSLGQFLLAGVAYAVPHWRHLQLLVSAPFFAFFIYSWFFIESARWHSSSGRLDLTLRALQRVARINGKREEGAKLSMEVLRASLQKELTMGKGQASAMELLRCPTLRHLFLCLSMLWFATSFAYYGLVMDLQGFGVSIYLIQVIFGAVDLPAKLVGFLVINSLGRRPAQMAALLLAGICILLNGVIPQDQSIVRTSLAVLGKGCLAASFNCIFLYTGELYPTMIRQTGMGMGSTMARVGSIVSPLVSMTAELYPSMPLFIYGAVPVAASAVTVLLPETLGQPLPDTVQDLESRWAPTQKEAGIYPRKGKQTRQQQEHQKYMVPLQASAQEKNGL
quantity: inhibition at 5 µM

Some solved cases for reference:
O=C(c1ccnc2ccc(C3CC3)cc12)N1CCC[C@H]1CNS(=O)(=O)C(F)(F)F :: 29.2%
O=C(c1ccnc2ccc(Br)cc12)N1CCC[C@H]1CNS(=O)(=O)C(F)(F)F :: 33.1%
CCc1oc2ccccc2c1C(=O)c1cc(Br)c(O)c(Br)c1 :: 70.5%

Please examine the following record next.
query: Need inhibition at 5 µM of O=C(O)C1(Sc2ccnc3ccc(Br)cc23)CCC1 , thanks.
result: 69.1%

----------
Hi there, I'd appreciate the recorded Tmax for every entry that follows.
experiment: Tmax in ICR mouse plasma at 50 mg/kg, po measured upto 24 hrs by LC-MS/MS analysis; format: ADME, organism-based
Answers are plain numbers, in min.

Below: 2 molecules and their reported Tmax.
O=C(c1ccnc2ccc(C3CC3)cc12)N1CCC[C@H]1CNS(=O)(=O)C(F)(F)F :: 15
O=C(c1ccnc2ccc(Br)cc12)N1CCC[C@H]1CNS(=O)(=O)C(F)(F)F :: 120

Note: attention shifts to another entry.
query: Entry O=C(c1ccnc2ccc(-c3ccnc(F)c3)cc12)N1CCC[C@H]1CNS(=O)(=O)C(F)(F)F has what Tmax?
result: 15

----------
molecular target: UniProtKB Q8TCC7; experiment: Inhibition of human OAT3 expressed in MDCK-II cells using 6-carboxyfluorescein as substrate at 5 uM relative to control; format: cell-based; details: MDCK-II cells expressing human OAT3, probe 6-carboxyfluorescein
Sequence (Q8TCC7 whole entry): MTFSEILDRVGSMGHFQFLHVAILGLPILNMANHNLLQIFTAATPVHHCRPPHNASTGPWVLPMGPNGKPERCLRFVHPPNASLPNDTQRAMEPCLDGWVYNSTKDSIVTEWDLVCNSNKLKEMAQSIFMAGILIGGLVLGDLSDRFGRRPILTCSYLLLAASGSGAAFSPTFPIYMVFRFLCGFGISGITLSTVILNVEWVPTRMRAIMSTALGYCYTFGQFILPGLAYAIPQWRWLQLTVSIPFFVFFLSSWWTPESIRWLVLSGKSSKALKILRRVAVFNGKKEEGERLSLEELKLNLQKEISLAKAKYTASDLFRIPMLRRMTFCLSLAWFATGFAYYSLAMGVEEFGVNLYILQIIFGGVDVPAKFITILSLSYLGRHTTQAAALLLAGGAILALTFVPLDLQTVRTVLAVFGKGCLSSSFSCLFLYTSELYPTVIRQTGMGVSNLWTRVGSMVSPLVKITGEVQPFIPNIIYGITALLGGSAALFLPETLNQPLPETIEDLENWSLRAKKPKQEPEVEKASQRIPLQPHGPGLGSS
quantity: inhibition at 5 µM (%)
One number for each entry, in %.

CCc1oc2ccccc2c1C(=O)c1cc(Br)c(O)c(Br)c1 :: 46.5
O=C(c1ccnc2ccc(Br)cc12)N1CCC[C@H]1CNS(=O)(=O)C(F)(F)F :: 18.5
O=C(O)C1(Sc2ccnc3ccc(Br)cc23)CCC1 :: 55.4

query: Look up inhibition at 5 µM: O=C(c1ccnc2ccc(C3CC3)cc12)N1CCC[C@H]1CNS(=O)(=O)C(F)(F)F
result: 35.1

----------
experiment: Metabolic stability in mouse liver microsomes assessed as half life in presence of NADPH; type: ADME, Microsome
Assign half-life to each entry below.
Answers are plain numbers, in min.

The cases that follow already have their half-life on record.
O=C(c1ccnc2ccc(-c3cnoc3)cc12)N1CCC[C@H]1CNS(=O)(=O)C(F)(F)F :: 8
O=C(c1ccnc2ccc(-c3ccnc(F)c3)cc12)N1CCC[C@H]1CNS(=O)(=O)C(F)(F)F :: 26.7
O=C(c1ccnc2ccc(-c3ccc(F)cc3)cc12)N1CCC[C@H]1CNS(=O)(=O)C(F)(F)F :: 4.9
O=C(c1ccnc2ccc(C3CC3)cc12)N1CCC[C@H]1CNS(=O)(=O)C(F)(F)F :: 22.7

query: Which value of half-life has been reported for O=C(c1ccnc2ccc(Br)cc12)N1CCC[C@H]1CNS(=O)(=O)C(F)(F)F in the records?
result: 19.1

----------
experiment: Metabolic stability in human liver microsomes assessed as half life in presence of NADPH; type: ADME, Microsome
Hi there, I'd appreciate the recorded half-life for every entry that follows.

Solved entries:
O=C(c1ccnc2ccc(C3CCCCC3)cc12)N1CCC[C@H]1CNS(=O)(=O)C(F)(F)F :: < 4.5 min
O=C(c1ccnc2ccc(-c3ccnc(F)c3)cc12)N1CCC[C@H]1CNS(=O)(=O)C(F)(F)F :: 14.9 min
O=C(c1ccnc2ccc(-c3ccc(F)cc3)cc12)N1CCC[C@H]1CNS(=O)(=O)C(F)(F)F :: 5.5 min
O=C(c1ccnc2ccc(Br)cc12)N1CCC[C@H]1CNS(=O)(=O)C(F)(F)F :: 33.3 min
O=C(c1ccnc2ccc(-c3cnoc3)cc12)N1CCC[C@H]1CNS(=O)(=O)C(F)(F)F :: > 93.2 min
O=C(c1ccnc2ccc(C3CCCC3)cc12)N1CCC[C@H]1CNS(=O)(=O)C(F)(F)F :: < 4.5 min

Now consider the entry below.
query: Which half-life value belongs to O=C(c1ccnc2ccc(C3CC3)cc12)N1CCC[C@H]1CNS(=O)(=O)C(F)(F)F ?
result: 45.4 min

----------
biological target: Solute carrier family 22 member 12 (Homo sapiens); test: Inhibition of human URAT1 expressed in HEK-293T cells assessed as inhibition rate by measuring [C14}-uric acid uptake at 1 uM measured after 8 mins by MicroBeta2 scintillation counting analysis relative to control; type: cell-based
Kindly state inhibition at 1 µM for each of the entries shown.
One number for each entry, in %.

Answered examples (4):
Cc1ccc(Nc2ccc3nccc(C(=O)N4CCC[C@H]4CNS(=O)(=O)C(F)(F)F)c3c2)cc1 :: 15
O=C(c1ccnc2ccc(Nc3ccncc3F)cc12)N1CCC[C@H]1CNS(=O)(=O)C(F)(F)F :: 65
Cc1cc(F)ccc1Nc1ccc2nccc(C(=O)N3CCC[C@H]3CNS(=O)(=O)C(F)(F)F)c2c1 :: 8
O=C(c1ccnc2ccc(Nc3cccc(Cl)c3)cc12)N1CCC[C@H]1CNS(=O)(=O)C(F)(F)F :: -9

Let us examine a further case.
query: Look at this molecule and give its reported inhibition at 1 µM. O=C(c1ccnc2ccc(N3CCC3)cc12)N1CCC[C@H]1CNS(=O)(=O)C(F)(F)F
result: 74
